System: MDA-MB-435
# valid calls are active, inactive; nothing else

# example entries with known answers
> print(dat)
                                   molecule  assay.target  category
1  Cc1cc(F)ccc1S(=O)(=O)Nc1cc(-c2c(O)ccc3ccccc23)c(O)c2ccccc12    MDA-MB-435  inactive
2  CN1CCN(C(=O)C(C)(C)c2ccc(C(=O)Nc3cn4cc(-c5ccncc5)ccc4n3)cc2)CC1    MDA-MB-435    active
3  Cc1cc(NCCCN(C)C)c2ccc3c(ccc4c(NCCCN(C)C)cc(C)nc43)c2n1    MDA-MB-435    active
4  CC1=C(C(=O)Nc2ccc3n[nH]c(C)c3c2)C(c2ccc(C(F)(F)F)cc2)CC(=O)N1 (centres undefined)    MDA-MB-435  inactive
5  CC1(C)C2CCC13C(=O)C1OC3(C2)C2C(=O)c3ccccc3C(=O)C12 (centres undefined)    MDA-MB-435  inactive
6   COc1cc2nc(N3CCCC3)nc(NCc3ccccc3)c2cc1OC    MDA-MB-435  inactive
7  [Cl][Sn]([c]1ccccc1)([c]1ccccc1)[c]1ccccc1    MDA-MB-435    active

Req: Could you check what this test reported for "Cc1cc([N+](=O)[O-])c(NS(=O)(=O)c2cccc(C(=O)O)c2)cc1-c1cccnc1" ?
Resp: inactive

Reference source: PubChem BioAssay (NCI)
